- system: BRD3-BD1 (Homo sapiens (Human), UniProt Q15059)
- Sequence (Q15059 34-140): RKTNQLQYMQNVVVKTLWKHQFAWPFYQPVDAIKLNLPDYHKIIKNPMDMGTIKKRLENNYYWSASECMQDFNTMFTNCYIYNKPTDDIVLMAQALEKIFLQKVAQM
- assay remarks: DSF selectivity profiling
- Format: binding
attribute measured: BRD3-BD1 ΔTm (°C)
Give bare numbers, in °C.

Cc1cccc(C)c1C1NC(=O)c2c(Cl)cccc2N1 (stereo not drawn)	0.0
CCC(/C=C1\CCn2c1nc(=O)c1c(Cl)cccc12)CC [Compound 7, reference compound]	−0.3
Cc1cccc(C2NC(=O)c3c(Cl)cccc3N2)c1C (stereo not drawn)	0.4
Cc1ccccc1C1NC(=O)c2c(Cl)cccc2N1 (stereo not drawn)	0.3
CN(C)/C=C1\CCn2c1nc(=O)c1c(Cl)cccc12 [Compound 2, reference compound]	0.1

Dear colleague, please send me the reported BRD3-BD1 ΔTm for Cc1cccc(C2NC(=O)c3c(Br)cccc3N2)c1 (stereo not drawn) when you can. 0.4

----------
- system: CECR2 (Homo sapiens (Human))
- Sequence (Q9BXF3 434-538): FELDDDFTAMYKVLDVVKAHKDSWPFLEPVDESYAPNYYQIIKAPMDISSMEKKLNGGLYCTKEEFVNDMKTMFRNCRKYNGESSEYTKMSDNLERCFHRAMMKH
- assay remarks: DSF selectivity profiling
- Type: binding
Mark Not met for CECR2 ΔTm values under -0.5 °C, and Met for everything at or above.

CCC(/C=C1\CCn2c1nc(=O)c1c(Cl)cccc12)CC [Compound 7, reference compound]	Not met

Does Cc1cccc(C2NC(=O)c3c(Cl)cccc3N2)c1C (stereo not drawn) have a reported CECR2 ΔTm of at least -0.5 °C? Met

Does Cc1cccc(C2NC(=O)c3c(Br)cccc3N2)c1 (stereo not drawn) have a reported CECR2 ΔTm of at least -0.5 °C? Not met

Does Cc1cccc(C)c1C1NC(=O)c2c(Cl)cccc2N1 (stereo not drawn) have a reported CECR2 ΔTm of at least -0.5 °C? Met

Does CN(C)/C=C1\CCn2c1nc(=O)c1c(Cl)cccc12 [Compound 2, reference compound] have a reported CECR2 ΔTm of at least -0.5 °C? Met

----------
- system: BRDT-BD1 (Homo sapiens (Human))
- assay remarks: DSF selectivity profiling
- Assay type: binding
- Method: Differential Scanning Fluorimetry (DSF). Bromodomain DSF Tm assays were performed using an Mx3005P (Stratagene) PCR detection system and low profile 96-well PCR plates (UltraFlux, Flat Top, SSI 3400-00S). […] The temperature was raised by 1° C./min from 25-95° C., and fluorescence readings were taken at each interval. Melting curves were analyzed using our online interactive fitting tool for thermofluor experiments (https://dsf-analysis.herokuapp.com/DSF-analysis) and plotted using GraphPad Prism.
attribute measured: BRDT-BD1 ΔTm (°C)
Answers are plain numbers, in °C.

Solved cases (3 shown):
Cc1cccc(C)c1C1NC(=O)c2c(Cl)cccc2N1 (stereo not drawn) [Compound 26]	−0.6
CN(C)/C=C1\CCn2c1nc(=O)c1c(Cl)cccc12 [Compound 2, reference compound]	−0.1
Cc1cccc(C2NC(=O)c3c(Cl)cccc3N2)c1C (stereo not drawn) [Compound 25]	0.1

Go through the items and report each one's BRDT-BD1 ΔTm.
1. Cc1ccccc1C1NC(=O)c2c(Cl)cccc2N1 (stereo not drawn) [Compound 15]
2. CCC(/C=C1\CCn2c1nc(=O)c1c(Cl)cccc12)CC [Compound 7, reference compound]
3. Cc1cccc(C2NC(=O)c3c(Br)cccc3N2)c1 (stereo not drawn) [Compound 34]

1. −0.7
2. −0.8
3. −0.4

----------
- system: ASH1L (Homo sapiens (Human))
- assay remarks: DSF selectivity profiling
- Assay type: binding
- Description: Differential Scanning Fluorimetry (DSF). Bromodomain DSF Tm assays were performed using an Mx3005P (Stratagene) PCR detection system and low profile 96-well PCR plates (UltraFlux, Flat Top, SSI 3400-00S). […] The temperature was raised by 1° C./min from 25-95° C., and fluorescence readings were taken at each interval. Melting curves were analyzed using our online interactive fitting tool for thermofluor experiments (https://dsf-analysis.herokuapp.com/DSF-analysis) and plotted using GraphPad Prism.
attribute measured: ASH1L ΔTm (°C)
Give bare numbers, in °C.

Solved cases (4 shown):
Cc1cccc(C)c1C1NC(=O)c2c(Cl)cccc2N1 (stereo not drawn)	−0.8
Cc1ccccc1C1NC(=O)c2c(Cl)cccc2N1 (stereo not drawn)	−0.6
CN(C)/C=C1\CCn2c1nc(=O)c1c(Cl)cccc12 [Compound 2, reference compound]	−0.7
Cc1cccc(C2NC(=O)c3c(Cl)cccc3N2)c1C (stereo not drawn)	−0.8

# ---- query compound ----
Provide measured ASH1L ΔTm on ASH1L (Homo sapiens (Human)) for Cc1cccc(C2NC(=O)c3c(Br)cccc3N2)c1 (stereo not drawn) please. −0.4

----------
- system: SMARCA4 (Homo sapiens (Human))
- Sequence (P51532 1453-1564): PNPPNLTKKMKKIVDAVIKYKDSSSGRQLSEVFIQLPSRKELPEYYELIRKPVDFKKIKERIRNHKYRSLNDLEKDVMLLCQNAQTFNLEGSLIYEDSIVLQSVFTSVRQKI
- assay remarks: DSF selectivity profiling
- Type: binding
Can you tell me SMARCA4 ΔTm for the items I'm about to list?

Cc1cccc(C2NC(=O)c3c(Br)cccc3N2)c1 (stereo not shown)	−0.2 °C
CCC(/C=C1\CCn2c1nc(=O)c1c(Cl)cccc12)CC [Compound 7, reference compound]	3.1 °C

# ---- query compound ----
Dear colleague, please send me the reported SMARCA4 ΔTm for CN(C)/C=C1\CCn2c1nc(=O)c1c(Cl)cccc12 [Compound 2, reference compound] when you can. 2 °C

----------
- system: PCAF (Homo sapiens (Human), UniProt Q92831)
- Sequence (Q92831 723-827): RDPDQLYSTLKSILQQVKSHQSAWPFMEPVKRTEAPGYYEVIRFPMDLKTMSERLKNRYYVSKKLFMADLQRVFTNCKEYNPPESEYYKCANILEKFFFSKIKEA
- assay remarks: DSF selectivity profiling
- Type: binding
attribute measured: PCAF ΔTm

Solved cases (5 shown):
Cc1cccc(C)c1C1NC(=O)c2c(Cl)cccc2N1 (stereo not drawn) [Compound 26]	0.6 °C
Cc1cccc(C2NC(=O)c3c(Br)cccc3N2)c1 (stereo not drawn) [Compound 34]	0.6 °C
CN(C)/C=C1\CCn2c1nc(=O)c1c(Cl)cccc12 [Compound 2, reference compound]	−0.2 °C
Cc1ccccc1C1NC(=O)c2c(Cl)cccc2N1 (stereo not drawn) [Compound 15]	0.5 °C
CCC(/C=C1\CCn2c1nc(=O)c1c(Cl)cccc12)CC [Compound 7, reference compound]	0.4 °C

Dear colleague, please send me the reported PCAF ΔTm for Cc1cccc(C2NC(=O)c3c(Cl)cccc3N2)c1C (stereo not drawn) [Compound 25] when you can. 0.1 °C

----------
- system: p300 (Homo sapiens (Human), UniProt Q09472)
- Sequence (Q09472 1049-1156): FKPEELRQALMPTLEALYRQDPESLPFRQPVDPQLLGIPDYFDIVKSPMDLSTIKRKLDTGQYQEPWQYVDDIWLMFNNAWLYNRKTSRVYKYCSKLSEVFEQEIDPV
- assay remarks: DSF selectivity profiling
- Type: binding
Mark each entry True if its p300 ΔTm sits below 0.2 °C, and False for all others.

Could you please tell me whether p300 ΔTm recorded for CN(C)/C=C1\CCn2c1nc(=O)c1c(Cl)cccc12 [Compound 2, reference compound] is less than 0.2 °C? True

Could you please tell me whether p300 ΔTm recorded for Cc1cccc(C2NC(=O)c3c(Br)cccc3N2)c1 (stereo not drawn) is less than 0.2 °C? True

Could you please tell me whether p300 ΔTm recorded for CCC(/C=C1\CCn2c1nc(=O)c1c(Cl)cccc12)CC [Compound 7, reference compound] is less than 0.2 °C? True

Could you please tell me whether p300 ΔTm recorded for Cc1cccc(C2NC(=O)c3c(Cl)cccc3N2)c1C (stereo not drawn) is less than 0.2 °C? False

----------
Can you tell me pKd for the items I'm about to list?
- system: PBRM1-BD2 (Homo sapiens (Human), UniProt Q86U86)
- Sequence (Q86U86 177-287): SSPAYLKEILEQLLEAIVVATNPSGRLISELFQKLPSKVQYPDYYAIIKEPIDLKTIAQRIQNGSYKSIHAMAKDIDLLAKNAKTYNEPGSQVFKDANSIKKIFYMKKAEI
- assay remarks: biochemical
- Type: binding
- settings: read-out: Kd
pKd: −log10 of the molar value.

COc1cccc(OCC(F)(F)F)c1C#N	< 2.70

Go through the items and report each one's pKd.
1. N#Cc1ncccc1N1CCCCC1
2. NC(=S)c1ccc(F)cc1

1. < 2.70
2. < 2.70

----------
- system: BRD2-BD2 (Homo sapiens (Human))
- Sequence (P25440 344-453): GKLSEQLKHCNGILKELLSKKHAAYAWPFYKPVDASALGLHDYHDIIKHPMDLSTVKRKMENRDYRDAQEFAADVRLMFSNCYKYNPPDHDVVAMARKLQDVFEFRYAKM
- assay remarks: DSF selectivity profiling
- Type: binding
Can you tell me BRD2-BD2 ΔTm for the items I'm about to list?
Quick note: number first, unit second.

Solved cases (5 shown):
Cc1cccc(C)c1C1NC(=O)c2c(Cl)cccc2N1 (stereo not drawn) [Compound 26]	0.5 °C
CCC(/C=C1\CCn2c1nc(=O)c1c(Cl)cccc12)CC [Compound 7, reference compound]	0.6 °C
CN(C)/C=C1\CCn2c1nc(=O)c1c(Cl)cccc12 [Compound 2, reference compound]	−0.2 °C
Cc1cccc(C2NC(=O)c3c(Cl)cccc3N2)c1C (stereo not drawn) [Compound 25]	0.2 °C
Cc1ccccc1C1NC(=O)c2c(Cl)cccc2N1 (stereo not drawn) [Compound 15]	0.6 °C

# ---- query molecule ----
Dear colleague, please send me the reported BRD2-BD2 ΔTm for Cc1cccc(C2NC(=O)c3c(Br)cccc3N2)c1 (stereo not drawn) [Compound 34] when you can. 0.5 °C

----------
- system: PBRM1-BD2 (Homo sapiens (Human), UniProt Q86U86)
- assay remarks: AlphaScreen competition assay, His6-tagged PBRM1-BD2 and biotinylated H3K14ac peptide
- Type: binding
- settings: 0.2 μM His6-PBRM1-BD2, 0.1 μM biotinylated H3K14ac peptide
attribute measured: IC50

O=C(O)c1ccccc1Nc1cc(Cl)ccc1C(=O)O [Compound 37]	> 250 µM

Go through the items and report each one's IC50.
1. O=C1NC(c2c(F)cccc2Cl)Nc2ccccc21 (stereo not shown) [Compound 5]
2. COc1cccc2c1C(=O)NC(c1ccccc1C)N2 (stereo not shown) [Compound 31]
3. O=C(O)c1ccc(Cl)c2c(=O)c3ccccc3[nH]c12 [Compound 38]

1. 4.2 µM
2. > 70 µM
3. > 250 µM
